Test: in vitro
Type: cell-based
Settings: human, pH 7.4, Hemolysis (%)
Starred links: 1 amine or outer side, 2 acyl side, 3 side chain; linkers in the order of their positions; H or OH if unused. Positions of bridges follow the written chain, without caps; N, C: chain ends. Non-standard residues stand in square brackets, D forms with d. Residues, ends and D or L forms follow the SMILES beside them. X3 = CC(C)CCCCC[C@H](CC(=O)[*:1])O[*:2]; X1 = C/C=C(/N[*:1])C(=O)[*:2]; Dab = NCC[C@H](N)C(=O)O; Dap = NC[C@H](N)C(=O)O
observedProperty: hemolysis at 45 min, 100 µM

# input compound: C/C=C1/NC(=O)[C@H](CCN)NC(=O)[C@H](CC(C)C)NC(=O)[C@H](CN)NC(=O)C[C@@H](CCCCCC(C)C)OC(=O)[C@H](CC(=O)O)NC(=O)[C@H](C(C)C)NC(=O)[C@@H](Cc2ccccc2)NC(=O)[C@H](CN)NC(=O)[C@H]([C@@H](C)O)NC1=O [Compound 5, Isopedopeptin E] ([Dap]L[Dab][X1]T[Dap][dF]VD; linker N-C via X3) ; wanted: its hemolysis at 45 min, 100 µM
5.2%

---

System: P. aeruginosa LMG6395T
Experiment: MIC, broth micro-dilution, primary panel
Format: cell-based, Pseudomonas aeruginosa
Conditions: Pseudomonas aeruginosa, LMG6395T, WT
Starred links: 1 amine or outer side, 2 acyl side, 3 side chain; linkers in the order of their positions; H or OH if unused. Positions of bridges follow the written chain, without caps; N, C: chain ends. Non-standard residues stand in square brackets, D forms with d. Residues, ends and D or L forms follow the SMILES beside them. X3 = CC(C)CCCCC[C@H](CC(=O)[*:1])O[*:2]; X1 = C/C=C(/N[*:1])C(=O)[*:2]; Dab = NCC[C@H](N)C(=O)O; Dap = NC[C@H](N)C(=O)O
observedProperty: MIC (µg/mL)
Report the value in µg/mL with no unit label.

# input molecule: C/C=C1/NC(=O)[C@H](CCN)NC(=O)[C@H](CC(C)C)NC(=O)[C@H](CN)NC(=O)C[C@@H](CCCCCC(C)C)OC(=O)[C@H](CC(=O)O)NC(=O)[C@H](C(C)C)NC(=O)[C@@H](Cc2ccccc2)NC(=O)[C@H](CN)NC(=O)[C@H]([C@@H](C)O)NC1=O [Compound 5, Isopedopeptin E] ([Dap]L[Dab][X1]T[Dap][dF]VD; linker N-C via X3) ; wanted: its MIC
32

---

Test system: B. cereus CCUG7414T
Starred links: 1 amine or outer side, 2 acyl side, 3 side chain; linkers in the order of their positions; H or OH if unused. Positions of bridges follow the written chain, without caps; N, C: chain ends. Non-standard residues stand in square brackets, D forms with d. Residues, ends and D or L forms follow the SMILES beside them. X2 = CCCCCCC[C@H](CC(=O)[*:1])O[*:2]; Val(3-OH) = CC(C)(O)[C@H](N)C(=O)O; X1 = C/C=C(/N[*:1])C(=O)[*:2]; Dab = NCC[C@H](N)C(=O)O; Dap = NC[C@H](N)C(=O)O
observedProperty: MIC

Form: Entry = C/C=C1/NC(=O)[C@H](CCN)NC(=O)[C@H](CC(C)C)NC(=O)[C@H](CN)NC(=O)C[C@@H](CCCCCCC)OC(=O)[C@H](CC(=O)O)NC(=O)[C@H](C(C)(C)O)NC(=O)[C@@H](Cc2ccccc2)NC(=O)[C@H](CN)NC(=O)[C@H]([C@@H](C)O)NC1=O [Compound 2, isopedopeptin B] ([Dap]L[Dab][X1]T[Dap][dF][Val(3-OH)]D; linker N-C via X2) | System = B. cereus CCUG7414T | MIC = ____
> 32 µg/mL
